- Tested on: 596521-263-R-J1-PDC complex spheroids, viability % of control;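 also: spheroids exposed to drugs for 7 days before viability reading; 100% = DMSO vehicle control viability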
- assay.explanation: Anticancer human tumor 596521-263-R-J1-PDC patient-derived soft tissue sarcoma cell line growth inhibition [GQUAD]
- experimental.parameters: second compound 0.1 µM; first compound 0.1 µM; active compounds read low
- Text: DNA G-quadruplex Stabilizer Agents in Combinations in Complex Spheroids A high-throughput screen of multi-cell type tumor spheroids was designed to identify active combinations of DNA G-quadruplex stabilizer agents and targeted small molecules. […] Compounds. […] If the clinical Cmax for an agent had not been determined, the highest concentration tested was 10 microM. […]
parameter.measured: viability, T/C (%)

>>> endpoint_result("C#Cc1c(F)ccc2cc(O)cc(-c3ncc4c(N5CC6CCC(C5)N6)nc(OCC56CCCN5CC(F)C6)nc4c3F)c12 (centres undefined) + Cc1cnc(CNC(=O)c2c(=O)c3ccc(N4CCCN(C)CC4)nc3n3c2sc2ccccc23)cn1")
74.9
>>> endpoint_result("COc1cc(C2c3cc4c(cc3C(OC3OC5COC(C)OC5C(O)C3O)C3COC(=O)C23)OCO4)cc(OC)c1O (centres undefined) + Cc1[nH]c2ccc(F)cc2c1-c1nc2c3cccnc3c3ncccc3c2[nH]1")
86.8
>>> endpoint_result("CC1COCCN1c1cc(C2(S(C)(=N)=O)CC2)nc(-c2ccnc3[nH]ccc23)n1 (centres undefined) + CN(C)c1ccc(Nc2c3ccc(NC(=O)CCN4CCCC4)cc3nc3cc(NC(=O)CCN4CCCC4)ccc23)cc1")
97.7
>>> endpoint_result("C=CC(=O)N1CCN(c2nc(=O)n(-c3c(C)ccnc3C(C)C)c3nc(-c4c(O)cccc4F)c(F)cc23)C(C)C1 (centres undefined) + Cc1cnc(CNC(=O)c2c(=O)c3ccc(N4CCCN(C)CC4)nc3n3c2sc2ccccc23)cn1")
86.1
>>> endpoint_result("O=c1[nH]cc(F)c(=O)[nH]1 + CN(C)c1ccc(Nc2c3ccc(NC(=O)CCN4CCCC4)cc3nc3cc(NC(=O)CCN4CCCC4)ccc23)cc1")
117
>>> endpoint_result("CC1COCCN1c1cc(C2(O)CC3CCC(C2)O3)c2cnn(-c3ccn[nH]3)c2n1 (centres undefined) + CN(C)c1ccc(Nc2c3ccc(NC(=O)CCN4CCCC4)cc3nc3cc(NC(=O)CCN4CCCC4)ccc23)cc1")
56.9
>>> endpoint_result("CC(C)n1c(=O)n(C)c2cnc3cc(F)c(-c4ccc(OCCCN5CCCCC5)nc4)cc3c21 + Cc1[nH]c2ccc(F)cc2c1-c1nc2c3cccnc3c3ncccc3c2[nH]1")
112
>>> endpoint_result("CC1COCCN1c1cc(C2(O)CC3CCC(C2)O3)c2cnn(-c3ccn[nH]3)c2n1 (centres undefined) + Cc1[nH]c2ccc(F)cc2c1-c1nc2c3cccnc3c3ncccc3c2[nH]1")
60.1
>>> endpoint_result("O=c1[nH]cc(F)c(=O)[nH]1 + Cc1cnc(CNC(=O)c2c(=O)c3ccc(N4CCCN(C)CC4)nc3n3c2sc2ccccc23)cn1")
84.9
